Test: The compound was tested for binding affinity against Tachykinin receptor 1 from rabbit cortex
OBSERVATION_TYPE: pKi
Please express pKi as -log10 of the molar concentration.

QUERY: # input molecule: O=C1OC2(CCN(CCc3c[nH]c4ccc(F)cc34)CC2)CN1Cc1ccccc1 ; wanted: its pKi
RESULT: 5.10

The measurements presented in this section are drawn from BindingDB's records for doi:10.1021/jm00019a006.
